Known folding stability dG of a selection of variants
B1: EEHEE_rd4_0647 (parent)
chain: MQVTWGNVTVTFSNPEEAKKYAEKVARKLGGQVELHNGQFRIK

variants of: B1; test: folding stability dG (cDNA display proteolysis); higher = more stable; settings: PBS, room temperature
Hi! Could you send only the number? It should be in kcal/mol, unit omitted.

Some solved cases for reference:
mutant: G30M
attribute measured: folding stability dG
value: 2.05
--
mutant: K20P
attribute measured: folding stability dG
value: 0.849
--
mutant: V8D
attribute measured: folding stability dG
value: 1.33

Ask | Looking for the measured folding stability dG of P15S , can you help?
Reply | 2.79

Ask | // next record M1F
Reply | 3.34

Ask | // next record K43Q
Reply | 2.59

Ask | // next record F40I
Reply | 2.49

Ask | // next record R41F
Reply | 3.5

Ask | // next record N7F
Reply | 2.43

Ask | // next record G31C
Reply | 2.79

Ask | // next record G38N
Reply | 2.46
